Test system: HCC 2998
Test: NCI tumour cell line growth inhibition, 48 h
Active and inactive are the calls of the source. No stated cut-off is given here; in the data, active = GI50 up to about 1.1 µM and inactive = higher.
Log the outcome using a class from t (active), f (inactive)

Compound	Group
COc1cc(/C=C\c2ccc(C)cc2)cc(OC)c1OC	t

Q: Could you check what this test reported for CCN(CC)[C@@H]1c2cc3c(cc2C(c2cc(OC)c(O)c(OC)c2)C2C(=O)CO[C@@H]21)OCO3 (some centres undefined) ?
A: f

Q: Could you check what this test reported for CC1OC(OC2C(O)COC(OC3C(C)OC(OC4C(OC(=O)[C@]56CCC(C)(C)C[C@@H]5C5=CCC7[C@@]8(C)C[C@H](O)[C@H](OC9OC(CO)C(O)C(O)C9O)[C@@](C)(CO)[C@@H]8CC[C@@]7(C)[C@]5(C)CC6)OCC(O)C4O)C(O)C3O)C2O)C(O)C(O)C1O (some centres undefined) ?
A: f

Q: Could you check what this test reported for CN(C)c1ccc(/C=C2\CCc3ccccc3C2=O)cc1Br ?
A: f

###

System: NCI-H460
Test: NCI tumour cell line growth inhibition, 48 h
Calls of active or inactive are those of the source. Rule as the data show it: active = GI50 up to about 1.1 µM and inactive = higher.
Log the outcome using a class from label 1 (active), label 0 (inactive)

Example cases with answers are listed next.
> print(dat)
                                   molecule    group
1  Cc1ncc([N+](=O)[O-])n1CC(O)Cn1cnc([N+](=O)[O-])n1 (stereo unspecified)  label 0
2  Cc1c2c(c(C)n1-c1ccccc1)C(=O)N(CCCCN1CCN(c3ccccc3)CC1)C2=O  label 0
3       COc1ccc(OC)c2c1C(=O)C(Cl)=C(Cl)C2=O  label 0
4                         C=CC(OCC)(OCC)OCC  label 0
5  Cc1ccc(C2=Nc3ccccc3SC(c3cccc([N+](=O)[O-])c3)C2)cc1 (stereo unspecified)  label 0
6  C[Si](C)(C)CCOCN(C(=O)C1=CCC2(CC1)OCCO2)c1ccccc1I  label 0
7  CSCCC(N)C(=O)NCCNc1ccc(NCCNC(=O)C(N)CCSC)c2c1C(=O)c1ccccc1C2=O (stereo unspecified)  label 1
8  CCOC(=O)C12CCC(c3c(C)cccc3C)(O1)C(C(=O)OC)=C2C(=O)OC (stereo unspecified)  label 0

Q: Could you check what this test reported for O=C(O)CC1NCc2cc3ccccc3nc21 (stereo unspecified) ?
A: label 0

Q: Could you check what this test reported for O=C1C[C@H](c2ccccc2)C2(C(=O)c3ccccc3C2=O)[C@@H](c2ccccc2)C1 ?
A: label 0

Q: Could you check what this test reported for CCc1ncnc2cc(OCC3CO3)c(OC)cc12 (stereo unspecified) ?
A: label 0

###

Tested on: IGROV-1
Test: NCI tumour cell line growth inhibition, 48 h
Active and inactive are the calls of the source. No stated cut-off is given here; in the data, active = GI50 up to about 1.1 µM and inactive = higher.
Quantity Kind: GI50

Use these answered entries as a reference point.
> print(dat)
                                   molecule  measured.target  quantity.kind               result
1  NC(=O)C(c1ccccc1)N1OC2C(=O)N(c3ccccc3)C(=O)C2C1c1c2ccccc2c(Cl)c2ccccc12 (centres undefined)          IGROV-1           GI50  > 100 µM (inactive)
2          CC1=CC(=O)/C(=C/NC(=O)NN)C(=O)O1          IGROV-1           GI50   58.5 µM (inactive)
3  COc1ccc2nc3c([N+](=O)[O-])ccc4c3c(c2c1)N(CCCN(C)C)C(=S)N4CCCN(C)C          IGROV-1           GI50   2.97 µM (inactive)

Would you mind listing GI50 for each of the following molecules?
1. CC1c2[nH]c3ccccc3c2CCN1O (centres undefined)
2. CCOC(=O)C(C)c1nc2cc(N3CCN(C)CC3)c(F)cc2[nH]c1=O (centres undefined)
3. O=C1C[C@H](c2ccccc2)C2(C(=O)c3ccccc3C2=O)[C@@H](c2ccccc2)C1
4. Cn1cnnc1Sc1c([N+](=O)[O-])nc(-c2ccc([N+](=O)[O-])cc2)n1C
5. O=C(OC1CCC(=C2SCCCS2)[C@H]1C1SCCCS1)c1ccccc1 (some centres undefined)
6. COC(=O)CC(CNC(=O)OCc1ccccc1)OCc1ccc(OC)cc1 (centres undefined)
7. Cc1ccc(C2=Nc3c(c(C)nn3-c3ccccc3)N=C(C(=O)O)C2)cc1
8. CC1(C)CC2(S(=O)(=O)c3ccccc3)ON1CC2S(=O)(=O)c1ccccc1 (centres undefined)

A:
1. > 100 µM (inactive)
2. > 100 µM (inactive)
3. 16.3 µM (inactive)
4. 17.5 µM (inactive)
5. > 100 µM (inactive)
6. > 100 µM (inactive)
7. > 10 µM (inactive)
8. > 100 µM (inactive)

###

Tested on: OVCAR-4
Test: NCI tumour cell line growth inhibition, 48 h
Active and inactive are the calls of the source. Cut-off read from the data, not from the text of the source: active = GI50 up to about 1.1 µM and inactive = higher.
Quantity Kind: GI50

Use these answered entries as a reference point.
> print(dat)
                                   compound               result
1  CC1(C)C=C(/C=N/Nc2ccc(Br)cc2)C(C#N)=C(O)C1(C#N)C#N     40 µM (inactive)
2  COC(=O)C(CCC1CC(OC)N(C(=O)OCc2ccccc2)C1)/N=C/c1ccccc1 (stereo not drawn)   62.1 µM (inactive)
3  C/C(=C\c1ccccc1)C(=O)NCc1ccc(C(=O)NCCC(C)C)cc1  > 100 µM (inactive)

Would you mind listing GI50 for each of the following compounds?
1. COc1cc(NS(C)(=O)=O)ccc1NCc1c[nH]c2ccc3ncccc3c12
2. CC[N+](CC)(CCNCC(N)=O)CC(N)=O
3. O=c1[nH]c2nc3ccccc3c(=O)n2/c1=C/c1ccc(O)cc1
4. O=C1/C(=C/c2ccccc2)CN(C(=O)C(F)(F)F)C/C1=C\c1ccccc1
5. CC(C)(C)[C@H]1CCC2(OCCO2)[C@](O)(CCCO)C1

A:
["20.7 µM (inactive)", "> 10 µM (inactive)", "> 100 µM (inactive)", "2.44 µM (inactive)", "> 100 µM (inactive)"]

###

System: HCT-116
Test: NCI tumour cell line growth inhibition, 48 h
Activity calls are given as the source filed them. Rule as the data show it: active = GI50 up to about 1.1 µM and inactive = higher.
Log the outcome using a class from True (active), False (inactive)

Example cases with answers are listed next.
> print(dat)
                                    molecule  measured.target  group
 1  CC(C)OP(=O)(OC(C)C)/C(=N/Nc1ccccc1[N+](=O)[O-])NCCN/C(=N\Nc1ccccc1[N+](=O)[O-])P(=O)(OC(C)C)OC(C)C          HCT-116  False
 2  O=C(Nc1ccc(Cl)cc1C(F)(F)F)C(=O)C1CCCS1(=O)=O (stereo not drawn)          HCT-116  False
 3  CC(=C/C=C/C=C(C)\C=C\C=C(\C)C(=O)O)/C=C/C=C(/C)C(=O)O          HCT-116  False
 4            CCOC(=O)C1=CCOc2cc(N(C)C)ccc21          HCT-116  False
 5  COc1cc2c(cc1OCCCCOc1cc3c(cc1OC)C(=O)N1CCC[C@H]1C(=O)N3)N=C[C@@H]1CCCN1C2=O          HCT-116  False
 6  COc1ccc2nc3ccc(OC)cc3c(SCC3CO3)c2c1 (stereo not drawn)          HCT-116  False
 7   O=C(O)Cn1ccc(=O)c2cc([N+](=O)[O-])ccc21          HCT-116  False
 8  C=C1CC[C@@H]2C(C)(C)CCC[C@@]2(C)[C@@H]1Cc1cc(O)ccc1O          HCT-116  False
 9  CC(=O)O[C@]12CCCC1C1(O)C(O)CCCC12 (stereo partly drawn)          HCT-116  False
10    O=C1c2cc([N+](=O)[O-])sc2C(=O)c2ccsc21          HCT-116   True

Q: Could you check what this test reported for CC1=C(O)/C(=C/C(C)CCC/C(C)=C/C=C/C(C)CCCc2ccoc2)OC1=O (stereo not drawn) ?
A: False

Q: Could you check what this test reported for Clc1cc(Cl)c2n[se]nc2c1 ?
A: False

Q: Could you check what this test reported for CC(=O)/C=C(/C=N/O)c1ccccc1 ?
A: False

Q: Could you check what this test reported for O=C1/C(=C/C=C/c2ccccc2)N=C(c2ccccc2)N1C1Nc2cc3c(cc2S1)NC(N1C(=O)/C(=C/C=C/c2ccccc2)N=C1c1ccccc1)S3 (stereo not drawn) ?
A: False

Q: Could you check what this test reported for C(/C=N/N=C1NCCCN1)=N\N=C1NCCCN1 ?
A: False

Q: Could you check what this test reported for O=C(COc1ccccc1)N(C(=O)N1CCN(c2ccccc2)CC1)S(=O)(=O)c1ccccc1 ?
A: False

Q: Could you check what this test reported for Cc1cc2c3ccccc3[nH]c2c2ccnc(C)c12 ?
A: False

Q: Could you check what this test reported for COc1cc(OC)c(SSCCCCS(=O)O)c(OC)c1 ?
A: False

Q: Could you check what this test reported for CN(C)c1nncc2[nH]nnc12 ?
A: False

Q: Could you check what this test reported for CC1(C)CC2(S(=O)(=O)c3ccccc3)ON1CC2S(=O)(=O)c1ccccc1 (stereo not drawn) ?
A: False

Q: Could you check what this test reported for O=C1C=C[C@@]23CC1C(O)C[C@H]2C=Cc1ccccc13 (stereo partly drawn) ?
A: False

Q: Could you check what this test reported for O=c1[nH]c2ccc(C(F)(F)F)cc2nc1-c1ccccc1 ?
A: False
